# targetOrTestSystem: CFTR (Homo sapiens, UniProt P13569, DEL508-508)
# Construct: endogenous in cells; host or cells: primary human bronchial epithelial cells from CF subjects (F508del/MF-HBE), differentiated at air-liquid interface
# Sequence (P13569 with tags, fused parts or gaps DEL508-508): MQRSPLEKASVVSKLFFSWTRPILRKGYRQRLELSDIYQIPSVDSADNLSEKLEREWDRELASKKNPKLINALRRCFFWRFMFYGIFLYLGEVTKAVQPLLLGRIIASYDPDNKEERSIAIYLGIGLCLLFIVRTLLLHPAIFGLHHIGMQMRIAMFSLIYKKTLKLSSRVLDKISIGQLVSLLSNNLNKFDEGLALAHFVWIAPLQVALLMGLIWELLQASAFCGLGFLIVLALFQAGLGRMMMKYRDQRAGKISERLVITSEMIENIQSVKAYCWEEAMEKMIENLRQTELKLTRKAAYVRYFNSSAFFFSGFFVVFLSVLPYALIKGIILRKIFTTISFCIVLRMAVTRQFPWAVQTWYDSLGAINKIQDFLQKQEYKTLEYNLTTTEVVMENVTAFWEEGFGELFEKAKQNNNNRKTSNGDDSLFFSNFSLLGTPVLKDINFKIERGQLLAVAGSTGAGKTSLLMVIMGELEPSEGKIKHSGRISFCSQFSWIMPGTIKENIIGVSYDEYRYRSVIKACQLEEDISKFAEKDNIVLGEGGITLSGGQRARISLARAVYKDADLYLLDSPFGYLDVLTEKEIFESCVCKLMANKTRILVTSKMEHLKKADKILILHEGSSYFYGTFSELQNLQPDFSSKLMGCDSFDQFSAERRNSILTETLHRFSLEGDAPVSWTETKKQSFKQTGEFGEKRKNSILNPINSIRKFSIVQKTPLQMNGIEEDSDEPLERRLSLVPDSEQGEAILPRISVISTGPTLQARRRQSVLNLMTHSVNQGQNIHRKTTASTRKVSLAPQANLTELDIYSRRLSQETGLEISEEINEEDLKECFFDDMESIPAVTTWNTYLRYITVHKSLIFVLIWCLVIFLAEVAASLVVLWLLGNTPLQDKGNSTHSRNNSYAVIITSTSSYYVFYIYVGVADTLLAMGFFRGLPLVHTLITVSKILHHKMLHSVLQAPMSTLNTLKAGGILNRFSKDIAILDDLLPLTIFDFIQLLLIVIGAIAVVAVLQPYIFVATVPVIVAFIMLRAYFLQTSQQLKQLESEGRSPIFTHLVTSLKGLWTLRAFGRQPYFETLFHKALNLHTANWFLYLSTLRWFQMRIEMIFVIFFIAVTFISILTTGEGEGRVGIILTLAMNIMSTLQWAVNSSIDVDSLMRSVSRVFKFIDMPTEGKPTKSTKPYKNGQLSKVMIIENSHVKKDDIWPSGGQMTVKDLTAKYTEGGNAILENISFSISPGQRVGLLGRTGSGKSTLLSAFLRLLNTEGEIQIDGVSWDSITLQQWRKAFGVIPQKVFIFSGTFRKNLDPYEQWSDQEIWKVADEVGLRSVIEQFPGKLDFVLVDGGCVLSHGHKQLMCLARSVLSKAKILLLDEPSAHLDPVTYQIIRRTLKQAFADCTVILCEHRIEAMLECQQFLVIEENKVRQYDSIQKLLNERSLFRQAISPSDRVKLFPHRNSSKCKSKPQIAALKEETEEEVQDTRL
# measurementNotes: HBE assay: Ussing chamber assay of CFTR-mediated short-circuit currents
# Assay type: cell-based
# setupConditions: Table 10; read-out: HBE EC50
pEC50: −log10 of the molar value.
parameterMeasured: pEC50

molecule	parameterMeasured	observedResult
Cc1cccc(C)c1-c1cc2nc(n1)NS(=O)(=O)c1cccc(c1)C(=O)N(Cc1nccc3ccccc13)[C@H](CC(C)(C)C)CO2 [Compound 767]	pEC50	> 6.00
COC[C@]1(O)CC[C@@H](CN2C(=O)c3cccc(c3)S(=O)(=O)Nc3nc(cc(-c4c(C)cccc4C)n3)OC[C@H]2CC(C)(C)C)CC1 [Compound 907]	pEC50	> 6.00
Cc1cccc(C)c1-c1cc2nc(n1)NS(=O)(=O)c1cccc(c1)C(=O)N(Cc1ccc(N(C)C)cn1)[C@H](CC(C)(C)C)CO2 [Compound 503]	pEC50	> 6.00
Cc1cccc(C)c1-c1cc2nc(n1)NS(=O)(=O)c1cccc(c1)C(=O)N(Cc1ccc(N3CCOCC3)cc1)[C@H](CC(C)(C)C)CO2 [Compound 498]	pEC50	> 6.00

###

# targetOrTestSystem: CFTR (Homo sapiens, UniProt P13569, DEL508-508)
# Construct: endogenous in cells; host or cells: primary human bronchial epithelial cells from CF subjects (F508del/MF-HBE), differentiated at air-liquid interface
# measurementNotes: HBE assay: Ussing chamber assay of CFTR-mediated short-circuit currents
# Assay type: cell-based
# setupConditions: Table 10; at 10 μM; read-out: HBE activity at 10 (μM) (%)
Readings of activation at 10 µM for the listed molecules

molecule	activation at 10 µM
Cc1cccc(C)c1-c1cc2nc(n1)NS(=O)(=O)c1cccc(c1)C(=O)N(Cc1ccccc1-c1c[nH]nc1C(F)(F)F)[C@H](CC(C)(C)C)CO2	> 60%
CC(C)c1cccc(C(C)C)c1-c1cc2nc(n1)NS(=O)(=O)c1cccc(c1)C(=O)N(Cc1ccc(N3CCCCC3)cn1)[C@H](CC(C)(C)C)CO2	> 60%
Cc1cccc(C)c1-c1cc2nc(n1)NS(=O)(=O)c1cccc(c1)C1Oc3ncc4ccccc4c3CN1[C@H](CC(C)(C)C)CO2 (stereo partly drawn)	30 to 60%

###

Readings of pEC50 for the listed compounds
# targetOrTestSystem: CFTR (Homo sapiens, UniProt P13569, DEL508-508)
# Construct: endogenous in cells; host or cells: primary human bronchial epithelial cells from CF subjects (F508del/MF-HBE), differentiated at air-liquid interface
# measurementNotes: HBE assay: Ussing chamber assay of CFTR-mediated short-circuit currents
# Format: cell-based
# setupConditions: Table 10; read-out: HBE EC50
pEC50: −log10 of the molar value.
parameterMeasured: pEC50

compound	parameterMeasured	observedResult
Cc1cccc(C)c1-c1cc2nc(n1)NS(=O)(=O)c1cccc(c1)C(=O)N(Cc1ccc(N3CCOCC3)nc1)[C@H](CC(C)(C)C)CO2 [Compound 60]	pEC50	> 6.00
Cc1cccc(C)c1-c1cc2nc(n1)NS(=O)(=O)c1cccc(c1)C(=O)N(CC1CCC(NCC(=O)O)CC1)[C@H](CC(C)(C)C)CO2 (stereo partly drawn) [Compound 911]	pEC50	4.52 to 5.52
Cc1cccc(C)c1-c1cc2nc(n1)NS(=O)(=O)c1cccc(c1)C(=O)N(Cc1cccc(N3CCCCC3)n1)[C@H](CC(C)(C)C)CO2 [Compound 489]	pEC50	> 6.00
Cc1cccc(C)c1-c1cc2nc(n1)NS(=O)(=O)c1cccc(c1)C(=O)N(CC1CCC(N3C[C@@H](C)O[C@@H](C)C3)CC1)[C@H](CC(C)(C)C)CO2 (stereo partly drawn) [Compound 914]	pEC50	> 6.00
COc1ccnc(CN2C(=O)c3cccc(c3)S(=O)(=O)Nc3nc(cc(-c4c(C)cccc4C)n3)OC[C@H]2CC(C)(C)C)n1 [Compound 773]	pEC50	> 6.00
COCCN(C)c1cnc(CN2C(=O)c3cccc(c3)S(=O)(=O)Nc3nc(cc(-c4c(C)cccc4C)n3)OC[C@H]2CC(C)(C)C)nc1 [Compound 114]	pEC50	> 6.00
